Biological target: CYP1A2 (Homo sapiens, UniProt P05177)
Sequence (P05177 whole entry): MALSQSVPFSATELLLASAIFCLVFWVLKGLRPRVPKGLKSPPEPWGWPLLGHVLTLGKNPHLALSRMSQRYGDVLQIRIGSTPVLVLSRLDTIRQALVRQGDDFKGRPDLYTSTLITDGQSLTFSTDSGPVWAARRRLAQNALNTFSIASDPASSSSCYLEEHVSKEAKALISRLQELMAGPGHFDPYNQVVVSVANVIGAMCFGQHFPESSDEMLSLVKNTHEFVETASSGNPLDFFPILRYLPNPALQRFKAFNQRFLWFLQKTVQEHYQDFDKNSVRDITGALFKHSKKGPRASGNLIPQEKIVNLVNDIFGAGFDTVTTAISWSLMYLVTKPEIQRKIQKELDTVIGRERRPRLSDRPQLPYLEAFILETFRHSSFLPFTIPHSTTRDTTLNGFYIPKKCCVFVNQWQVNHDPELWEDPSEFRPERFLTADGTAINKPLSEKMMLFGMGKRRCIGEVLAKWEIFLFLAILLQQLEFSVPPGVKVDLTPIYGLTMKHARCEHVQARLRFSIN
Assay: Inhibition of CYP1A2 (unknown origin) assessed as phenaceten demethylation to acetaminophen at 10 uM by cocktail inhibition assay relative to control
Conditions: probe phenacetin (demethylation to acetaminophen)

molSmiles: CNC(=O)c1cc(-n2ncc3cc(Nc4ccccc4Cl)c(F)cc32)cs1
systemName: CYP1A2 (Homo sapiens, UniProt P05177)
inhibition at 10 µM (%): 21

molSmiles: CNC(=O)c1cc(-n2ncc3cc(Nc4c(F)cccc4Cl)c(C)nc32)cs1
systemName: CYP1A2 (Homo sapiens, UniProt P05177)
inhibition at 10 µM (%): 43

molSmiles: O=C(NC1COC1)c1cc(-n2ncc3cc(Nc4ccccc4Cl)c(F)cc32)cs1
systemName: CYP1A2 (Homo sapiens, UniProt P05177)
inhibition at 10 µM (%): 4

molSmiles: CNC(=O)c1cc(-n2ncc3cc(Nc4ccccc4Cl)cnc32)cs1
systemName: CYP1A2 (Homo sapiens, UniProt P05177)
inhibition at 10 µM (%): 30

molSmiles: O=C(NC1COC1)c1cc(-n2ncc3cc(Nc4ccccc4Cl)cnc32)cs1
systemName: CYP1A2 (Homo sapiens, UniProt P05177)
inhibition at 10 µM (%): 19

---

Target: Mitogen-activated protein kinase 14 (Homo sapiens, UniProt Q16539)
Sequence (Q16539 whole entry): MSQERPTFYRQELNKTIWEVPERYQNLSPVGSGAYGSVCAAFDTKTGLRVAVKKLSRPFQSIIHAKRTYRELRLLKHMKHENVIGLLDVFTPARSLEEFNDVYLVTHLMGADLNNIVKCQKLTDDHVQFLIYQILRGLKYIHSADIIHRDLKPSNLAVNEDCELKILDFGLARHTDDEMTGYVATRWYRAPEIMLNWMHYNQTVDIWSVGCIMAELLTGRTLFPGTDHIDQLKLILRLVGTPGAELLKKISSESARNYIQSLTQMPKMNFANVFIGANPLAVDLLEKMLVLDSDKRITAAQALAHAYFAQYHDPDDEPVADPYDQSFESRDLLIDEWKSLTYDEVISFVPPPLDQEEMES
Assay: Inhibition of p38 alpha (unknown origin) using biotinylated FL-ATF-2 as substrate measured after 22 mins by homogeneous time-resolved fluorescence analysis
pIC50: −log10 of the molar value.

molSmiles: CNC(=O)c1cc(-n2ncc3cc(Nc4ccccc4Cl)c(F)cc32)cs1
qualifierOperator: =
pIC50: 7.00
//
molSmiles: CNC(=O)c1cc(-n2ncc3cc(Nc4c(F)cccc4Cl)ncc32)cs1
qualifierOperator: =
pIC50: 7.24
//
molSmiles: O=C(Nc1cnn(-c2csc(C(=O)NC3COC3)c2)c1)Nc1ccccc1Cl
qualifierOperator: <
pIC50: 4.70
//
molSmiles: CNC(=O)c1cc(-n2ncc3cc(Nc4c(F)cccc4Cl)cnc32)cs1
qualifierOperator: =
pIC50: 6.97
//
molSmiles: CNC(=O)c1cc(-n2ncc3cc(Nc4ccccc4Cl)c(OC)cc32)cs1
qualifierOperator: =
pIC50: 6.80
//
molSmiles: Cc1nc2c(cnn2-c2csc(C(=O)NC3COC3)c2)cc1Nc1cccc(F)c1Cl
qualifierOperator: =
pIC50: 5.85
//
molSmiles: O=C(NC1CCOCC1)c1cc(-n2ncc3cc(Nc4ccccc4Cl)c(F)cc32)cs1
qualifierOperator: =
pIC50: 7.33

---

Test system: SH-SY5Y
Assay: Cytotoxicity against human SH-SY5Y cells assessed as reduction in cell viability at 10 uM measured after 48 hrs by MTT assay
Type: cell-based
readoutKind: Cell viability (%)

molSmiles: CNC(=O)c1cc(-n2ncc3cc(Nc4c(F)cccc4Cl)c(C)nc32)cs1
readoutKind: Cell viability
observed: 109
--
molSmiles: O=C(Nc1cnn(-c2csc(C(=O)NC3COC3)c2)c1)Nc1ccccc1Cl
readoutKind: Cell viability
observed: 104
--
molSmiles: CNC(=O)c1cc(-n2ncc3cc(Nc4c(F)cccc4Cl)cnc32)cs1
readoutKind: Cell viability
observed: 104
--
molSmiles: CNC(=O)c1cc(-n2ncc3cc(Oc4ccccc4Cl)ccc32)cs1
readoutKind: Cell viability
observed: 94
--
molSmiles: Cc1nc2c(cnn2-c2csc(C(=O)NC3COC3)c2)cc1Nc1c(F)cccc1Cl
readoutKind: Cell viability
observed: 116
--
molSmiles: O=C(NC1COC1)c1cc(-n2ncc3cc(Nc4ccccc4Cl)c(F)cc32)cs1
readoutKind: Cell viability
observed: 98
--
molSmiles: O=C(NC1COC1)c1cc(-n2ncc3cc(Nc4ccccc4Cl)cnc32)cs1
readoutKind: Cell viability
observed: 103
--
molSmiles: CNC(=O)c1cc(-n2ncc3cc(Nc4ccccc4Cl)c(F)cc32)cs1
readoutKind: Cell viability
observed: 83
--
molSmiles: CNC(=O)c1cc(-n2ncc3cc(Nc4ccccc4Cl)cnc32)cs1
readoutKind: Cell viability
observed: 119

---

Target: Mitogen-activated protein kinase 10 (Homo sapiens, UniProt P53779)
Sequence (P53779 whole entry): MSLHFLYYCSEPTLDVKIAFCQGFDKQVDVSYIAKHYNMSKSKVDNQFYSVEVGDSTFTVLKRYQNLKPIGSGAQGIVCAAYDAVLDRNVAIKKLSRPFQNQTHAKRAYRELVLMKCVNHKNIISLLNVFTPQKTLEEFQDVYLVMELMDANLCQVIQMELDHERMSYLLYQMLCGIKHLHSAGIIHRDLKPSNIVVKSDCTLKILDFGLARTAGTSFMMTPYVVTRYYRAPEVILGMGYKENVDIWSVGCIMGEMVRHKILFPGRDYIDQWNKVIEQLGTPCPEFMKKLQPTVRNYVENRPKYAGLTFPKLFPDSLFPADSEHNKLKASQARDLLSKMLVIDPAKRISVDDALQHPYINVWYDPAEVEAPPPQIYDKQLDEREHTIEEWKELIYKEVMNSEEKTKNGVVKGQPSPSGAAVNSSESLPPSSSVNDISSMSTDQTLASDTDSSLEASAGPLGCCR
Experiment: Inhibition of JNK3alpha1 (unknown origin) using biotinylated FL-ATF-2 as substrate measured after 22 mins by homogeneous time-resolved fluorescence analysis
pIC50: −log10 of the molar value.
readoutKind: pIC50

compound: CNC(=O)c1cc(-n2ncc3nc(Nc4ccccc4Cl)ncc32)cs1
systemName: Mitogen-activated protein kinase 10 (Homo sapiens, UniProt P53779)
readoutKind: pIC50
qualifierOperator: =
observed: 6.00

compound: CNC(=O)c1cc(-n2ncc3cc(Nc4ccccc4Cl)c(F)cc32)cs1
systemName: Mitogen-activated protein kinase 10 (Homo sapiens, UniProt P53779)
readoutKind: pIC50
qualifierOperator: =
observed: 8.30

compound: O=C(NC1COC1)c1cc(-n2ncc3cc(Nc4ccccc4Cl)c(F)cc32)cs1
systemName: Mitogen-activated protein kinase 10 (Homo sapiens, UniProt P53779)
readoutKind: pIC50
qualifierOperator: =
observed: 7.85

compound: CNC(=O)c1cc(-n2ncc3cc(Nc4c(F)cccc4OC)c(F)cc32)cs1
systemName: Mitogen-activated protein kinase 10 (Homo sapiens, UniProt P53779)
readoutKind: pIC50
qualifierOperator: =
observed: 8.30

compound: CNC(=O)c1cc(-n2ncc3cc(Nc4cccc(OC)c4Cl)c(C)nc32)cs1
systemName: Mitogen-activated protein kinase 10 (Homo sapiens, UniProt P53779)
readoutKind: pIC50
qualifierOperator: <
observed: 5.00

compound: COCCNC(=O)c1cc(-n2ncc3cc(Nc4ccccc4Cl)c(F)cc32)cs1
systemName: Mitogen-activated protein kinase 10 (Homo sapiens, UniProt P53779)
readoutKind: pIC50
qualifierOperator: =
observed: 8.52

compound: O=C(N[C@H]1CCOC1)c1cc(-n2ncc3cc(Nc4ccccc4Cl)c(F)cc32)cs1
systemName: Mitogen-activated protein kinase 10 (Homo sapiens, UniProt P53779)
readoutKind: pIC50
qualifierOperator: =
observed: 8.70

compound: CC(C)NC(=O)c1cc(-n2ncc3cc(Nc4ccccc4Cl)c(F)cc32)cs1
systemName: Mitogen-activated protein kinase 10 (Homo sapiens, UniProt P53779)
readoutKind: pIC50
qualifierOperator: =
observed: 8.70

compound: O=C(Nc1cnn(-c2cccc(C(=O)Nc3cnn(C4CCNC4)c3)c2)c1)Nc1ccccc1Cl (stereo not given)
systemName: Mitogen-activated protein kinase 10 (Homo sapiens, UniProt P53779)
readoutKind: pIC50
qualifierOperator: >
observed: 9.00

compound: O=C(NC1COC1)c1cc(-n2ncc3nc(Nc4ccccc4Cl)ccc32)cs1
systemName: Mitogen-activated protein kinase 10 (Homo sapiens, UniProt P53779)
readoutKind: pIC50
qualifierOperator: =
observed: 7.00

---

Molecular target: CYP3A4 (Homo sapiens, UniProt P08684)
Sequence (P08684 whole entry): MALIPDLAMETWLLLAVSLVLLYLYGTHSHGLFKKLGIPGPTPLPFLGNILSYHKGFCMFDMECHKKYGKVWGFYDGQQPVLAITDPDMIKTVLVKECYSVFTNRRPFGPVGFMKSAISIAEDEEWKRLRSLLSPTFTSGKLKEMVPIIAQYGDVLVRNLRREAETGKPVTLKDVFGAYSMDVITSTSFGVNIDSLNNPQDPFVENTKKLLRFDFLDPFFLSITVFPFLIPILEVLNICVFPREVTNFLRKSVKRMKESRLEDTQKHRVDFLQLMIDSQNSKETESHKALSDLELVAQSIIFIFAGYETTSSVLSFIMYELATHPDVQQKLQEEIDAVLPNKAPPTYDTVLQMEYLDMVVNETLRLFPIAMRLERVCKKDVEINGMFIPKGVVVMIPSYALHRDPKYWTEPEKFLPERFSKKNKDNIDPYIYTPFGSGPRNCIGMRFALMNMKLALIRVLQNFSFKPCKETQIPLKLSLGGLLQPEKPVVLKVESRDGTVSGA
Test: Inhibition of CYP3A4 (unknown origin) assessed as midazolam hydroxylation to 1'-hydroxy midazolam at 10 uM by cocktail inhibition assay relative to control
Settings: probe midazolam (hydroxylation to 1'-hydroxy midazolam)

molSmiles: CNC(=O)c1cc(-n2ncc3cc(Nc4ccccc4Cl)cnc32)cs1
inhibition at 10 µM (%): 57
//
molSmiles: O=C(NC1COC1)c1cc(-n2ncc3cc(Nc4ccccc4Cl)cnc32)cs1
inhibition at 10 µM (%): 14
//
molSmiles: CNC(=O)c1cc(-n2ncc3cc(Nc4ccccc4Cl)c(F)cc32)cs1
inhibition at 10 µM (%): -13
//
molSmiles: O=C(NC1COC1)c1cc(-n2ncc3cc(Nc4ccccc4Cl)c(F)cc32)cs1
inhibition at 10 µM (%): -56
//
molSmiles: CNC(=O)c1cc(-n2ncc3cc(Nc4c(F)cccc4Cl)c(C)nc32)cs1
inhibition at 10 µM (%): -2

---

The entries below come with measured Ratio IC50 values attached.
Assay: Selectivity index, ratio of IC50 for JNK1 (unknown origin) to IC50 for JNK3 (unknown origin)

molSmiles: O=C(NC1COC1)c1cc(-n2ncc3cc(Nc4ccccc4Cl)c(F)cc32)cs1
qualifierOperator: =
Ratio IC50: 75
--
molSmiles: O=C(NC1CCOCC1)c1cc(-n2ncc3cc(Nc4ccccc4Cl)c(F)cc32)cs1
qualifierOperator: =
Ratio IC50: 60
--
molSmiles: CC(C)N1CC[C@@H](NC(=O)c2cc(-n3ncc4cc(Nc5ccccc5Cl)ccc43)cs2)C1
qualifierOperator: =
Ratio IC50: 27
--
molSmiles: CNC(=O)c1cc(-n2ncc3cc(Nc4c(F)cccc4Cl)c(F)cc32)cs1
qualifierOperator: =
Ratio IC50: 129
--
molSmiles: COCCNC(=O)c1cc(-n2ncc3cc(Nc4ccccc4Cl)c(F)cc32)cs1
qualifierOperator: =
Ratio IC50: 56
--
molSmiles: CNC(=O)c1cc(-n2ncc3cc(Nc4c(F)cccc4OC)c(F)cc32)cs1
qualifierOperator: =
Ratio IC50: 248
--
molSmiles: Cc1nc2c(cnn2-c2csc(C(=O)NC3COC3)c2)cc1Nc1cccc(F)c1Cl
qualifierOperator: >
Ratio IC50: 59
--
molSmiles: O=C(NC1COC1)c1cc(-n2ncc3cc(Nc4ccccc4Cl)cnc32)cs1
qualifierOperator: =
Ratio IC50: 157
--
molSmiles: CC(=O)N1CC[C@H](NC(=O)c2cc(-n3ncc4cc(Nc5ccccc5Cl)c(F)cc43)cs2)C1
qualifierOperator: =
Ratio IC50: 132
